target: GST-KIAA807 [GST: P08515]; test: G' assay; further: key of the grades not given here
Sequence (P08515 whole entry): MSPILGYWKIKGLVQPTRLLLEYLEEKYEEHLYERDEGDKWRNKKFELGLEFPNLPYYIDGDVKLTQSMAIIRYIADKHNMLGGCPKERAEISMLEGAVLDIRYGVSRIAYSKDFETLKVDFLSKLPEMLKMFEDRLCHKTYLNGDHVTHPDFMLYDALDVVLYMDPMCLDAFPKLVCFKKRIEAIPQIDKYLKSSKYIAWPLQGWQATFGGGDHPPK
Please go through the items and note down their Classification.
Answers are plain numbers, in A450 class.

SPQPDSTDNDDYDDISAA (modifications not checked) [CD6] :: 1
KTMPAAMYRLLTAQEQPVYI (modifications not checked) [MINT-1] :: 4
AGAVRTPLSQVNKVWDQSSV (modifications not checked) [CITRON protein] :: 4

Here is another binder to look at.
Prompt: Would you kindly share the measured Classification for QATSRNGHSARQHVVADTEL (modifications not checked) [CD34] ?
Response: 5
